Molecular target: PolQ ATPase enzyme (1-894) (Homo sapiens (Human), UniProt O75417)
Sequence (O75417 1-894): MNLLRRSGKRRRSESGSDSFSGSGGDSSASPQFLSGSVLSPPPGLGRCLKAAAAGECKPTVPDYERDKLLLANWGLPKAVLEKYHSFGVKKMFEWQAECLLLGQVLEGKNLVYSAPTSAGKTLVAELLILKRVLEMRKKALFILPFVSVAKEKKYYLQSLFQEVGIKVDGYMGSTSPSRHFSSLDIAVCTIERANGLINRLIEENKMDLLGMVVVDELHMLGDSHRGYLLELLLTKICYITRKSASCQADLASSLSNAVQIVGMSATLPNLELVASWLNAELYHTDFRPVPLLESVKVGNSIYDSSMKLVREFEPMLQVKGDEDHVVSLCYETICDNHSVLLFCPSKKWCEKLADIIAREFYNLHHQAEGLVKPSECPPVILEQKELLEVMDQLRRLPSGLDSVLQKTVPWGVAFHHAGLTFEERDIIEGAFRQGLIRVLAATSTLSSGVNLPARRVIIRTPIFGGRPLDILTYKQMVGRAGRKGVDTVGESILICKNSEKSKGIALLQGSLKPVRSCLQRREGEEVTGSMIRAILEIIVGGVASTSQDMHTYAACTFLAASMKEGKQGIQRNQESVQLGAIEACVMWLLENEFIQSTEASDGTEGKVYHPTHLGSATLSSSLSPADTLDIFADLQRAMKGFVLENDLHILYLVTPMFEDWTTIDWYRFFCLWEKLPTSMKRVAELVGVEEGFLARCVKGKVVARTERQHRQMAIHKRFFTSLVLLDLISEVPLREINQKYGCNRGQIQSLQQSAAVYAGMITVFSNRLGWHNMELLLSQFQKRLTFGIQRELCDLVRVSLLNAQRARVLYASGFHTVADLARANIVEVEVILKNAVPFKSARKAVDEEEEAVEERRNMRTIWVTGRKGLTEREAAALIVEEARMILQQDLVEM
Experiment: Polθ ATPase enzymatic assay (0.5 nM enzyme concentration), ADP-Glo
Type: biochemical
Details: average IC50; 0.5 nM PolQ ATPase enzyme (1-894)
Below is a list of entries, each paired with its recorded IC50 value.

STRUCTURE_NOTATION	VAL
COc1cnc(C(F)F)cc1-c1cc(N2CCN(C)C3(CC3)C2=O)ncc1C(=O)Nc1nnc(C#CC2CC2)s1	< 0.25 nM

Exercise: Returns the measured IC50 for the input compound. Input: `COc1cnc(C(F)F)cc1-c1cc(-n2ccncc2=O)ccc1C(=O)Nc1nnc(C#CC2CC2)s1`
Solution: < 0.25 nM

Exercise: Can you look up the measured IC50 of `[2H]C([2H])([2H])Oc1cnc(C(F)F)cc1-c1cc(-c2ccn(C)n2)ncc1C(=O)Nc1nnc(C#CC2CC2)s1` for me?
Solution: < 0.25 nM

---

Target: PolQ ATPase enzyme (1-894) (Homo sapiens (Human), UniProt O75417)
Experiment: Polθ ATPase enzymatic assay (0.5 nM enzyme concentration), ADP-Glo
Assay type: biochemical
Settings: average IC50; 0.5 nM PolQ ATPase enzyme (1-894)
METRIC_NAME: IC50 (nM)

COMPOUND	VAL
COc1cnc(C(F)F)cc1-c1cn2ncnc2cc1C(=O)Nc1nnc(C#CC2CC23CC3)s1 (stereo not shown)	2.5

A. COc1cnc(C(F)F)cc1-c1cc(-c2cnc(C)o2)ncc1C(=O)Nc1nnc(C#CC2CC2)s1
B. COc1ccc(C(F)(F)F)cc1-c1cc(N2CCN(C)C2=O)ncc1C(=O)Nc1nnc(C#CC2CC2)s1
Exercise: Which entry shows the lesser value of IC50 here, A or B ? // output: label of the selected item
Solution: A
(A: 0.31 nM, B: 20 nM)

---

Molecular target: PolQ ATPase enzyme (1-894) (Homo sapiens (Human), UniProt O75417)
Assay: Polθ ATPase enzymatic assay (0.5 nM enzyme concentration), ADP-Glo
Format: biochemical
Conditions: average IC50; 0.5 nM PolQ ATPase enzyme (1-894)
# IC50 per record follows

Check out these entries, answers already filled in.
STRUCTURE_NOTATION	IC50
COc1cnc(C(F)F)cc1-c1cc(CC(=O)N(C)C)ncc1C(=O)Nc1ncc(C#CC2CC2)s1	< 0.25 nM
COc1cnc(C(F)F)cc1-c1nc(-c2nnc(C)o2)ccc1C(=O)Nc1nnc(C#CC2CC2)s1	> 100 nM
COc1cnc(C(F)F)cc1-c1cc(-c2ccn(C)n2)ccc1C(=O)Nc1nnc(C#CC2CC2)s1	< 0.25 nM

Now look at this entry.
Exercise: # IC50 lookup, item `COc1cnc(C(F)F)cc1-c1cc(-c2cnn(C)c2)ncc1C(=O)Nc1nnc(C#CC2CC2)s1`
Solution: < 0.25 nM

Data provenance is patent US20250026748A1.
